Listed binders paired with reported kon
- experimentalTarget: T1, PD-1 molecule (refolded, purified and biotinylated PD-1 of Example 2) (UniProt Q15116 33-150, biotinylated with BirA enzyme (site not stated))
- T1 construct: also called Programmed Death-1
- T1 sequence (Q15116 33-150 limits assumed): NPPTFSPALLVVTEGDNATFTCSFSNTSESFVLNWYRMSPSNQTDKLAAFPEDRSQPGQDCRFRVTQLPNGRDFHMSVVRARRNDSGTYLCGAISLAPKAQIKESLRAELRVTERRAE
- methodDescription: SPR (BIAcore T200), single-cycle kinetics; biotinylated PD-1 captured via streptavidin, PDL-1 variant in solution
# output: bare number, implied unit M⁻¹ s⁻¹

Guide cases for kon, answers given:
binder	kon / M⁻¹ s⁻¹
high affinity PDL-1 molecule L2B6 (ligand) FTVTVPKDLYVVEYGSNMTIECKFPVEKQLDLAALEVHWFMEDKNIVSFVHGEEDLKVQHSSYRQRARLLKDQLSLGNAALQITDVKLQDAGVYRCMISYGGADYKRITVKVNAPYNKINQRIRVVDPVTSEHELTCQAEGYPKAEVIWTSSDHQVLSGKTTTTNSKREEKLFNVTSTLRINTTTNEIFYCTFRRLDPEENHTAELVIPEL	13000
high affinity PDL-1 molecule L3B3a (ligand) FTVTVPKDLYVVEYGSNMTIECKFPVEKQLDLAALQVFWMMEDKNIVSFVHGEEDLKVQHSSYRQRARLLKDQLSLGNAALQITDVKLQDAGVYTCLIAYKGADYKRITVKVNAPYNKINQRILVVDPVTSEHELTCQAEGYPKAEVIWTSSDHQVLSGKTTTTNSKREEKLFNVTSTLRINTTTNEIFYCTFRRLDPEENHTAELVIPEL	162000
high affinity PDL-1 molecule L22D5 (ligand) FTVTVPKDLYVVEYGSNMTIECKFPVEKQLDLAALQVHWFMEDKNIFSFVHGEEDLKVQHSSYRQRARLLKDQLSLGNAALQITDVKLQDAGVYRCMISYGGADYKRITVKVNAPYNKINQRILVVDPVTSEHELTCQAEGYPKAEVIWTSSDHQVLSGKTTTTNSKREEKLFNVTSTLRINTTTNEIFYCTFRRLDPEENHTAELVIPEL	41400
high affinity PDL-1 molecule L2A6 (ligand) FTVTVPKDLYVVEYGSNMTIECKFPVEKQLDLAALQVHWFMEDKNIASFVHGEEDLKVQHSSYRQRARLLKDQLSLGNAALQITDVKLQDAGVYRCMISYGGADYKRITVKVNAPYNKINQRIRVVDPVTSEHELTCQAEGYPKAEVIWTSSDHQVLSGKTTTTNSKREEKLFNVTSTLRINTTTNEIFYCTFRRLDPEENHTAELVIPEL	9670
high affinity PDL-1 molecule L2F5 (ligand) FTVTVPKDLYVVEYGSNMTIECKFPVEKQLDLAALEVHWFMEDKNISSFVHGEEDLKVQHSSYRQRARLLKDQLSLGNAALQITDVKLQDAGVYRCMISYGGADYKRITVKVNAPYNKINQRILVVDPVTSEHELTCQAEGYPKAEVIWTSSDHQVLSGKTTTTNSKREEKLFNVTSTLRINTTTNEIFYCTFRRLDPEENHTAELVIPEL	12200
high affinity PDL-1 molecule L3B3C (ligand) WTVTVPKDLYVVEYGSNMTIECKFPVEKQLDLAALQVFWMMEDKNIVSFVHGEEDLKVQHSSYRQRARLLKDQLSLGNAALQITDVKLQDAGVYVCLIAYKGADYKRITVKVNAPYNKINQRILVVDPVTSEHELTCQAEGYPKAEVIWTSSDHQVLSGKTTTTNSKREEKLFNVTSTLRINTTTNEIFYCTFRRLDPEENHTAELVIPEL	67800
high affinity PDL-1 molecule L1C2 (ligand) FTVTVPKDLYVVEYGSNMTIECKFPVEKQLDLAALQVNWFMEDKNIIQFVHGEEDLKVQHSSYRQRARLLKDQLSLGNAALQITDVKLQDAGVYVCLISYGGADYKRITVKVNAPYNKINQRILVVDPVTSEHELTCQAEGYPKAEVIWTSSDHQVLSGKTTTTNSKREEKLFNVTSTLRINTTTNEIFYCTFRRLDPEENHTAELVIPEL	50100
high affinity PDL-1 molecule L32G5 (ligand) FTVTVPKDLYVVEYGSNMTIECKFPVEKQLDLAALIVYWEMEDKNIIQFVHGEEDLKVQHSSYRQRARLLKDQLSLGNAALQITDVKLQDAGVYTCLIGYHGADYKRITVKVNAPYNKINQRILVVDPVTSEHELTCQAEGYPKAEVIWTSSDHQVLSGKTTTTNSKREEKLFNVTSTLRINTTTNEIFYCTFRRLDPEENHTAELVIPEL	56600
high affinity PDL-1 molecule L3C7 (ligand) FTVTVPKDLYVVEYGSNMTIECKFPVEKQLDLAALEVHWFMEDKNIIQFVHGEEDLKVQHSSYRQRARLLKDQLSLGNAALQITDVKLQDAGVYTCLIGYKGADYKRITVKVNAPYNKINQRILVVDPVTSEHELTCQAEGYPKAEVIWTSSDHQVLSGKTTTTNSKREEKLFNVTSTLRINTTTNEIFYCTFRRLDPEENHTAELVIPEL	43900
high affinity PDL-1 molecule L3G10 (ligand) FTVTVPKDLYVVEYGSNMTIECKFPVEKQLDLAALTVAWYMEDKNIIQFVHGEEDLKVQHSSYRQRARLLKDQLSLGNAALQITDVKLQDAGVYTCLIGYDGADYKRITVKVNAPYNKINQRILVVDPVTSEHELTCQAEGYPKAEVIWTSSDHQVLSGKTTTTNSKREEKLFNVTSTLRINTTTNEIFYCTFRRLDPEENHTAELVIPEL	22200

Pending binder:
Q: Entry high affinity PDL-1 molecule L2F4 (ligand) FTVTVPKDLYVVEYGSNMTIECKFPVEKQLDLAALEVHWFMEDKNIFSFVHGEEDLKVQHSSYRQRARLLKDQLSLGNAALQITDVKLQDAGVYRCMISYGGADYKRITVKVNAPYNKINQRILVVDPVTSEHELTCQAEGYPKAEVIWTSSDHQVLSGKTTTTNSKREEKLFNVTSTLRINTTTNEIFYCTFRRLDPEENHTAELVIPEL : reported kon = ?
Ans: 20500
